These entries and their values trace back to paper PMC9289130.

# procedure summary: Stability test of QC samples in rat serum
# Format: in vitro ADME
# details: 4°C for 24 h, low QC (nominal 61.50 / 24.00 / 6.91 / 6.30 ng/ml for compounds 1-4), n = 6
parameter: Stability, mean concentration found (ng/mL)

// below: answered compounds
compound: C=C1CC[C@@H]2[C@](C)(CO)[C@H](O)CC[C@@]2(C)[C@H]1C/C=C1\C=COC1=O [dehydroandrographolide]
Stability, mean concentration found [ng/mL]: 25.71

compound: COC(=O)c1nccc2c1[nH]c1ccccc12 [1-methoxicabony-β-carboline]
Stability, mean concentration found [ng/mL]: 7.71

[I] COc1c(O)c(=O)n2c3ccccc3c3ccnc1c32 [4-methoxy-5-hydroxy-canthin-6-one]
[II] C=C1CC[C@@H]2[C@](C)(CO)[C@H](O)CC[C@@]2(C)[C@@H]1C/C=C1/C(=O)OC[C@H]1O [andrographolide]
Could you point out whether the larger Stability, mean concentration found belongs to I or to II ? Could you answer with the label of the item you picked?
II
(II: 58.54 ng/mL, I: 6.38 ng/mL)
